# System: MDA-MB-231
# Assay Procedure: NCI tumour cell line growth inhibition, 48 h
The source made the active and inactive calls. Cut-off read from the data, not from the text of the source: active = GI50 up to about 1.1 µM and inactive = higher. Non-standard residues stand in square brackets, D forms with d. Residues, ends and D or L forms follow the SMILES beside them. β3hI = CC[CH](C)[CH](N)CC(=O)O
For each entry below, report its GI50 value.

Request the reported GI50 associated with O=C(Cc1nc2ccccc2[nH]c1=O)c1c[nH]c2ccccc12
19.1 µM (inactive)

Request the reported GI50 associated with CC(C)C1SCc2nc3ccccc3n21 (stereo not drawn)
24.2 µM (inactive)

Request the reported GI50 associated with CCC1(c2ccccc2)C(=O)N=C(c2ccccc2)N1CCc1ccccc1 (stereo not drawn)
> 100 µM (inactive)

Request the reported GI50 associated with O=C(NCCNCCCNC(=O)c1cc(-c2ccccc2)nc2ccccc12)c1cccc(O)c1O
4.23 µM (inactive)

Request the reported GI50 associated with CC(C)(C)OC(=O)N1CCCC1C(=O)NCCNc1ccc(NCCNC(=O)C2CCCN2C(=O)OC(C)(C)C)c2c1C(=O)c1ccccc1C2=O (stereo not drawn)
13.2 µM (inactive)

Request the reported GI50 associated with N#Cc1ccc(CSC2=C(c3ccc(Cl)cc3)S/C(=C3\SC(SCc4ccc(C#N)cc4)=C(c4ccc(Cl)cc4)S3)S2)cc1
> 100 µM (inactive)

Request the reported GI50 associated with CCC(C)C(CC(=O)N1CCCC1C(=O)NC(C(=O)NC(C(=O)NCC(=O)NC(CC(N)=O)C(=O)NC(C(=O)NC(C(=O)NC(CCCCN)C(N)=O)C(C)CC)C(C)CC)C(C)C)C(C)CC)NC(=O)C(N)C(C)CC (stereo not drawn) (H-I[β3hI]PIVGNIIK-NH2; configuration not given here)
> 50 µM (inactive)

Request the reported GI50 associated with O=C1NC(=S)N/C1=C\c1ccc(Cl)cc1
> 100 µM (inactive)
